Each entry below lists one item and its recorded CC50 at 48 h value.
PROTOCOL SUMMARY: in vitro
PARTICULARS: chlorocebus sabaeus, Vero E6 (Vero C1008) cells, CC50

Which CC50 at 48 h is reported for this compound? OC(CCCN1CCc2c(c3cc(F)ccc3n2-c2ccc(F)cc2)C1)c1ccc(F)cc1 (centres undefined)
6.92 µM

Given the entry C#C[C@]1(O)CC[C@H]2[C@@H]3CCC4=CCCC[C@@H]4[C@H]3CC[C@@]21C , report its measured CC50 at 48 h.
10.5 µM

Any idea what its CC50 at 48 h is? The compound is CCC1(CC)C(=O)NCC(C)C1=O (centres undefined)
> 25.1 µM

Requested read-out: CC50 at 48 h. Entry: CN[C@@H]1C[C@@H](c2ccc(Cl)c(Cl)c2)c2ccccc21 [(R,S)-INDATRALINE]
8.51 µM

All values here come from ChEMBL document CHEMBL4651402.
